Readings of Difference for the listed molecules
# System: NCI-H292 lung cancer cells
# assay.overview: FDA drug screening, complete media vs cholesterol-free media with simvastatin (TABLE 2)
# Format: cell-based, human
# condition.label: complete media vs cholesterol-free media + simvastatin (0.04 μM); >0 enhanced anti-cancer activity, about 0 neutral, <0 antagonist
Where a name gives a salt, the structure may show the parent alone.
measure.name: Difference

molecule: CC(=O)OCC(=O)[C@@]1(O)CC[C@H]2[C@@H]3CCC4=CC(=O)C=C[C@]4(C)[C@H]3[C@@H](O)C[C@@]21C [Prednisolone acetate]
result: −0.11
--
molecule: CC(C)n1c(/C=C/C(O)CC(O)CC(=O)O)c(-c2ccc(F)cc2)c2ccccc21 (centres unmarked) [Fluvastatin (sodium)]
result: −0.13
--
molecule: Nc1ccncc1N
result: −0.23
--
molecule: CCOC(=O)[C@@H](N)Cc1ccc(-c2cc(O[C@H](c3ccc(Cl)cc3-n3ccc(C)n3)C(F)(F)F)nc(N)n2)cc1
result: −0.12
--
molecule: C[C@H](CCC(=O)NCCS(=O)(=O)O)[C@H]1CC[C@H]2[C@@H]3CC[C@@H]4C[C@H](O)CC[C@]4(C)[C@H]3C[C@H](O)[C@]12C [Taurodeoxycholic acid (sodium hydrate)]
result: −0.45
--
molecule: Cn1nnc2c(C(N)=O)ncn2c1=O [Temozolomide]
result: −0.16
--
molecule: C[C@@H](CN1CC(=O)NC(=O)C1)N1CC(=O)NC(=O)C1 [Dexrazoxane (hydrochloride)]
result: −0.28
--
molecule: CCOC(=O)C1=C(C)NC(C)=C(C(=O)OC)C1c1cccc(Cl)c1Cl (centres unmarked)
result: −0.24
